molecular target: T1, full-length human ghrelin acylated with an octanoyl group on the serine at position 3 (human, n-octanoyl group on Ser 3); test: SPR, BIAcore 2000, 25 C; Fab captured by goat anti-mouse kappa, ghrelin as analyte; koff/kon, average of three
T1 construct: also called hGhrelin; acylated hGhrelin
T1 sequence (peptide, as listed by the source): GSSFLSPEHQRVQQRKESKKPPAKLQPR
measurement.label: pKd
By convention, pKd is the negative base-10 log of a molar concentration.

Request the reported pKd associated with anti-hGhrelin Fab 2211 (Fab, V domains shown, Mouse Fab, kappa light chain) VH: EIQLQQSGAELMRPGASVKLSCKATGYTFTGYWIEWVKQRPGHGLEWIGEILPGSGSTNYNEKFKGKATFTADTSSNTANMQLSSLTTEDSAIYYCARYPQFGLRRERIAYWGQGTLVTVSV VL: DLVLTQSPASLAVSLGQRATISCRASKSVSTSGYSYMHWYQQKPGQPPKLLIYLASNLESGVPARFSGSGSGTDFTLNIHPVEEEDAATYYCQHSRELPYTFGAGTKLELKR
8.47

Form field: reported pKd of anti-hGhrelin Fab 2291 (Fab, V domains shown, Mouse Fab, kappa light chain) VH: EIQLQQSGAELMKPGASVKLSCKATGYTFTGYWIEWAKQRPGHGLEWIGEILPGSGSTNYNEKFKGKATFTADTSSNTANMQLSSLTTEDSAIYYCARYPQFRLRRERIAYWGQGTLVTVSV VL: DLVLTQSPASLAVSLGQRATISCRASKSVSTSGYSYMHWYQQKPGQPPKLLIYLASNLEPGVPARFSGSGSGTDFTLNIHPVEEEDAATYYCQHSRELPYTFGAGTKLELKR
8.97

Need pKd of anti-hGhrelin Fab 1111 (Fab, V domains shown, Mouse Fab from an Omniclonal library (immunised C57Bl/6 mice); kappa light chain (detected or captured with goat anti-mouse kappa)) VH: EIQLQQSGAELMKPGASVKLSCKATGYIFTGYWIEWVKQRPGHGLEWIGEILPGSGSTNYNEKFKGKATFTADTSSNTANMQLSSLTTEDSAIYYCARYPQFRLRRERIAYWGQGTLVTVSV VL: DLVLTQSPASLAVSLGQRATISCRASKSVSTSGYSYMHWYQQKPGQPPKLLIYLASNLESGVPARFSGSGSGTDFTLNIHPVEEEDAATYYCQHSRELPYTFGAGTKLELKR , thanks.
8.98

Fill in: pKd of anti-hGhrelin Fab 2891 (Fab, V domains shown, Mouse Fab, kappa light chain) VH: EIQLQQSGAELMKPGASVKLSCKATGYTFTGYWIEWVKQRPGHGLEWIGEILPGSGSTNYNEKFKGKATFTADTSSNTANMQLSSLTTEDSAIYYCARYPQFRLRRERIAYWGQGTLVTVSV VL: DLVLTQSPASLAVSLGQRATISCRASKSVSTSGYSYMHWYQQKPGQPPKLLIYLASNLESGVPARFSGSGSGTDFTLNIHPVEEEDAATYYCQHSRELPYTFGAGTKLELKR is ___
9.00

Value source: patent US20060269550A1
